test system: SF-295 CNS; assay: NCI tumour cell line growth inhibition, 48 h
Catalogue of TGI values
Only the number, expressed in µM, is required.

Below, 2 molecules whose answers are already recorded.
### Prompt Note TGI for the molecule shown: "CC1=C(C(=O)Nc2cccc(Cl)c2)C(c2ccc([N+](=O)[O-])cc2)C(C(=O)Nc2cccc(Cl)c2)=C(C)N1"
### Response 58.4

### Prompt Note TGI for the molecule shown: "CCc1ccccc1N1CCN(C(=O)c2cc(OC)c(OC)c(OC)c2)CC1"
### Response 0.0341

Further cases:
### Prompt Note TGI for the molecule shown: "COc1ccc(-c2cc(-c3ccccc3)nc(N3CCN(CCNc4ccnc5cc(Cl)ccc45)CC3)n2)cc1"
### Response 33

Data provenance is PubChem BioAssay (NCI).
